- measuredOn: T1, human PD-1 (#PD1-H82E4, AcroBiosystems) (human, UniProt Q15116 25-167)
- T1 construct: bought
- methodDescription: SPR, PD-1 on captured IgG1
observedProperty: kon (M⁻¹ s⁻¹)
Supply the numeric figure in M⁻¹ s⁻¹, leaving out any unit text.

Consider the worked cases shown below.
binder | unitsOfMeasure | kon
ICW519 (antibody, human IgG1, V domains shown, human IgG1) VH: VQLVQSGAEVKKPGASVKVSCKASGYTFTNFYIHWVRQAPGQGLEWMGSIYPNYGITAYNQKFQDRVTMTVDTSTSTAYMELRSLRSDDTAVYYCARGYSYAMDYWGQGTTVTVSS VL: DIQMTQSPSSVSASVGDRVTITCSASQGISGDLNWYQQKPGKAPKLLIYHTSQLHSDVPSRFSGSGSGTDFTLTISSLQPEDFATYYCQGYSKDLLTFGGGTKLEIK | M⁻¹ s⁻¹ | 365000
YCF391 (antibody, human IgG1, V domains shown, human IgG1) VH: VQLVQSGAEVKKPGASVKVSCKASGYTFTNFYIHWVRQAPGQGLEWMGSTYPNYGITAYNQKFKDRVTMTVDTSTSTAYMELRSLRSDDTAVYYCARGYSYAMDYWGQGTTVTVSS VL: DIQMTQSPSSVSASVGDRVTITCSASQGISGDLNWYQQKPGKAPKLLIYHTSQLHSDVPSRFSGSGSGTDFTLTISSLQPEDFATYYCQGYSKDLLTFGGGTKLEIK | M⁻¹ s⁻¹ | 416000

Next item in the queue.
Inquiry: Recall and state the measured kon for JPK663 (antibody, human IgG1, V domains shown, human IgG1) VH: VQLVQSGAEVKKPGASVKVSCKASGYTFTNFYIHWVRQAPGQGLEWMGSIYPNYGITAYNQKFKDRVTMTVDTSTSTAYMELRSLRSDDTAVYYCARGYSYAMDYWGQGTTVTVSS VL: DIQMTQSPSSVSASVGDRVTATCSASQGISGDLNWYQQKPGKAPKLLIYHTSQLHSDVPSRFSGSGSGTDFTLTISSLQPEDFATYYCQGYSKDLLTFGGGTKLEIK .
Reply text: 336000
